The entries below are paired with their reported binding signal.
TARGET OF ASSAY: T1, RBFOX1 RRM RbFoxmut (Fox-RRM*) (Homo sapiens, UniProt Q9NWB1 109-208, R118D;E147R;N151S;E152T)
T1 sequence: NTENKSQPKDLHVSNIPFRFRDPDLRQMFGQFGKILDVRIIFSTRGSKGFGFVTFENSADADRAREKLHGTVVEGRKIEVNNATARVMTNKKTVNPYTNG
TEST: EMSA; HiTS-Eq, 1 nM pool, 10 min; buffer printed only for the single-RNA assays: 10 mM Tris pH 7.5, 150 mM NaCl, 3.4 mM EDTA, 0.001% NP-40, 30 C
CONDITION NOTES: tags: His6 N-terminal (pET28a); label: 5' 32P
Whole data set: some 16,000 sequences, median “ka relative to ugcaugu” near 0.096, cut for the highest 2% near 0.35. The full list was thinned out, with the highest values kept by preference.
MEASURE NAME: binding signal

BINDER: GGCGAUG (DNA:RNA) RNA: GGGAGACCGGAAUUCAGAUUGUCCGGCGAUGUUAAAUCCCGUCGUAGCCACCA DNA 1: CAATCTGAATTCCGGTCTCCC DNA 2: TGGTGGCTACGACGGGATT
TEST VALUE: 0.404 KA relative to UGCAUGU

BINDER: GUCGUCG (DNA:RNA) RNA: GGGAGACCGGAAUUCAGAUUGUCCGUCGUCGUUAAAUCCCGUCGUAGCCACCA DNA 1: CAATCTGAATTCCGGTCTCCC DNA 2: TGGTGGCTACGACGGGATT
TEST VALUE: 0.15 KA relative to UGCAUGU

BINDER: GGAAUCG (DNA:RNA) RNA: GGGAGACCGGAAUUCAGAUUGUCCGGAAUCGUUAAAUCCCGUCGUAGCCACCA DNA 1: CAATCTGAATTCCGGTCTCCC DNA 2: TGGTGGCTACGACGGGATT
TEST VALUE: 0.387 KA relative to UGCAUGU

BINDER: UAAAUGC (DNA:RNA) RNA: GGGAGACCGGAAUUCAGAUUGUCCUAAAUGCUUAAAUCCCGUCGUAGCCACCA DNA 1: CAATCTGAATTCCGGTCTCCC DNA 2: TGGTGGCTACGACGGGATT
TEST VALUE: 0.0677 KA relative to UGCAUGU

BINDER: CAGGUUG (DNA:RNA) RNA: GGGAGACCGGAAUUCAGAUUGUCCCAGGUUGUUAAAUCCCGUCGUAGCCACCA DNA 1: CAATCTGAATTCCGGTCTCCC DNA 2: TGGTGGCTACGACGGGATT
TEST VALUE: 0.371 KA relative to UGCAUGU

BINDER: CGUCCCG (DNA:RNA) RNA: GGGAGACCGGAAUUCAGAUUGUCCCGUCCCGUUAAAUCCCGUCGUAGCCACCA DNA 1: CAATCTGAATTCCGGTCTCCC DNA 2: TGGTGGCTACGACGGGATT
TEST VALUE: 0.0717 KA relative to UGCAUGU

BINDER: AGGGUUG (DNA:RNA) RNA: GGGAGACCGGAAUUCAGAUUGUCCAGGGUUGUUAAAUCCCGUCGUAGCCACCA DNA 1: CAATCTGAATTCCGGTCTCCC DNA 2: TGGTGGCTACGACGGGATT
TEST VALUE: 0.578 KA relative to UGCAUGU

BINDER: ACCGAGG (DNA:RNA) RNA: GGGAGACCGGAAUUCAGAUUGUCCACCGAGGUUAAAUCCCGUCGUAGCCACCA DNA 1: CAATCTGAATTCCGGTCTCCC DNA 2: TGGTGGCTACGACGGGATT
TEST VALUE: 0.0689 KA relative to UGCAUGU

BINDER: CUCCGAA (DNA:RNA) RNA: GGGAGACCGGAAUUCAGAUUGUCCCUCCGAAUUAAAUCCCGUCGUAGCCACCA DNA 1: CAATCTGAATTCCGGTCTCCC DNA 2: TGGTGGCTACGACGGGATT
TEST VALUE: 0.104 KA relative to UGCAUGU

BINDER: CGAAUGC (DNA:RNA) RNA: GGGAGACCGGAAUUCAGAUUGUCCCGAAUGCUUAAAUCCCGUCGUAGCCACCA DNA 1: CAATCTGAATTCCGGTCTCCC DNA 2: TGGTGGCTACGACGGGATT
TEST VALUE: 0.856 KA relative to UGCAUGU

BINDER: CACCAGG (DNA:RNA) RNA: GGGAGACCGGAAUUCAGAUUGUCCCACCAGGUUAAAUCCCGUCGUAGCCACCA DNA 1: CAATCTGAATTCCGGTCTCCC DNA 2: TGGTGGCTACGACGGGATT
TEST VALUE: 0.0996 KA relative to UGCAUGU

BINDER: GUCGAUG (DNA:RNA) RNA: GGGAGACCGGAAUUCAGAUUGUCCGUCGAUGUUAAAUCCCGUCGUAGCCACCA DNA 1: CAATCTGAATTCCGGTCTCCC DNA 2: TGGTGGCTACGACGGGATT
TEST VALUE: 0.141 KA relative to UGCAUGU

BINDER: CAACUCG (DNA:RNA) RNA: GGGAGACCGGAAUUCAGAUUGUCCCAACUCGUUAAAUCCCGUCGUAGCCACCA DNA 1: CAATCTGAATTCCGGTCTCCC DNA 2: TGGTGGCTACGACGGGATT
TEST VALUE: 0.142 KA relative to UGCAUGU

BINDER: CACUGAA (DNA:RNA) RNA: GGGAGACCGGAAUUCAGAUUGUCCCACUGAAUUAAAUCCCGUCGUAGCCACCA DNA 1: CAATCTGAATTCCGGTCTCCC DNA 2: TGGTGGCTACGACGGGATT
TEST VALUE: 0.0869 KA relative to UGCAUGU

BINDER: GAUGUCG (DNA:RNA) RNA: GGGAGACCGGAAUUCAGAUUGUCCGAUGUCGUUAAAUCCCGUCGUAGCCACCA DNA 1: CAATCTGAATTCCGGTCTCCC DNA 2: TGGTGGCTACGACGGGATT
TEST VALUE: 0.145 KA relative to UGCAUGU

BINDER: GAGGUUG (DNA:RNA) RNA: GGGAGACCGGAAUUCAGAUUGUCCGAGGUUGUUAAAUCCCGUCGUAGCCACCA DNA 1: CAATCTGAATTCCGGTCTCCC DNA 2: TGGTGGCTACGACGGGATT
TEST VALUE: 0.552 KA relative to UGCAUGU

BINDER: GAUUGCU (DNA:RNA) RNA: GGGAGACCGGAAUUCAGAUUGUCCGAUUGCUUUAAAUCCCGUCGUAGCCACCA DNA 1: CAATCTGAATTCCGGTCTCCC DNA 2: TGGTGGCTACGACGGGATT
TEST VALUE: 0.141 KA relative to UGCAUGU
